Listed compounds paired with reported pIC50
System: K562 (chronic myeloid leukemia)
Assay Comment: Cytotoxic MTS assay, K562
Type: cell-based, human
pIC50 (log units): -log10 of the concentration in mol/L.

Reference set, count: 3
COc1cc(OC)c(C(=O)OCCCS(=O)(=O)c2cc[n+]([O-])c3cc(Cl)ccc23)cc1OC [Compound 76] :: 5.06
Cc1ccc([N+](=O)[O-])c(C(=O)OCCS(=O)(=O)c2cc[n+]([O-])c3cc(Cl)ccc23)c1 [Compound 70] :: 5.21
COc1ccc(OC)c(C(=O)OCCCS(=O)(=O)c2cc[n+]([O-])c3cc(Cl)ccc23)c1 [Compound 75] :: 5.15

(Q) Could you share which pIC50 value was measured for Cc1cc(C)cc(C(=O)OCCCS(=O)(=O)c2cc[n+]([O-])c3cc(Cl)ccc23)c1 [Compound 81] ?
(A) 5.42

(Q) Reported pIC50, compound COc1ccc(OC)c(C(=O)OCCS(=O)(=O)c2cc[n+]([O-])c3cc(Cl)ccc23)c1 [Compound 65] : ____
(A) 5.23

(Q) Using the record for COc1ccc(C(=O)OCCCS(=O)(=O)c2cc[n+]([O-])c3cc(Cl)ccc23)cc1[N+](=O)[O-] [Compound 79] , report its pIC50.
(A) 5.22

(Q) # query: pIC50 of entry COc1ccccc1C(=O)OCCS(=O)(=O)c1cc[n+]([O-])c2cc(Cl)ccc12 [Compound 68]
(A) 5.33

###

Tested on: CCRF-CEM lymphoblasts
Assay Comment: Cell cycle and apoptosis analysis (propidium iodide flow cytometry)
Format: cell-based, human
Measurement Setup: 24 h, 5 × IC50 (second value of cell)
Observable: S, % of Total Cellular Populations
Answer with the number, then the unit.

Answered cases to consult:
COc1ccc(OC)c(C(=O)OCCS(=O)(=O)c2cc[n+]([O-])c3cc(Cl)ccc23)c1 :: 32.8%
O=C(OCCS(=O)(=O)c1cc[n+]([O-])c2cc(Cl)ccc12)c1ccc(C(F)(F)F)cc1 :: 46.65%
COc1ccc(C(=O)OCCS(=O)(=O)c2cc[n+]([O-])c3cc(Cl)ccc23)cc1 :: 47.99%
COc1ccc(C(=O)OCCS(=O)(=O)c2cc[n+]([O-])c3cc(Cl)ccc23)cc1[N+](=O)[O-] :: 42.58%
Cc1ccc([N+](=O)[O-])c(C(=O)OCCS(=O)(=O)c2cc[n+]([O-])c3cc(Cl)ccc23)c1 :: 43.31%
COc1cc(OC)c(C(=O)OCCS(=O)(=O)c2cc[n+]([O-])c3cc(Cl)ccc23)cc1OC :: 24.9%

Now for the molecule whose S, % of Total Cellular Populations we want.
(Q) Reported S, % of Total Cellular Populations for `COc1ccccc1C(=O)OCCS(=O)(=O)c1cc[n+]([O-])c2cc(Cl)ccc12` : what is it?
(A) 31.86%

###

The following molecules are shown together with reported G2/M, % of Total Cellular Populations values.
System: CCRF-CEM lymphoblasts
Assay Comment: Cell cycle and apoptosis analysis (propidium iodide flow cytometry)
Type: cell-based, human
Measurement Setup: 24 h, 1 × IC50 (first value of cell)
State the answer as a number, implicitly in %.

COc1ccc(C(=O)OCCS(=O)(=O)c2cc[n+]([O-])c3cc(Cl)ccc23)cc1 :: 16.81
COc1ccccc1C(=O)OCCS(=O)(=O)c1cc[n+]([O-])c2cc(Cl)ccc12 :: 18.54

(Q) Param readout= G2/M, % of Total Cellular Populations; system= CCRF-CEM lymphoblasts; entry= `COc1ccc(C(=O)OCCS(=O)(=O)c2cc[n+]([O-])c3cc(Cl)ccc23)cc1[N+](=O)[O-]` ; returns value.
(A) 20.83

(Q) Please state recorded G2/M, % of Total Cellular Populations (tested on CCRF-CEM lymphoblasts) of `COc1cc(OC)c(C(=O)OCCS(=O)(=O)c2cc[n+]([O-])c3cc(Cl)ccc23)cc1OC`
(A) 16.6
